- Protocol Details: qHTS profiling for inhibitors of Plasmodium falciparum proliferation (AID 504749);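 further: 0% = DMSO vehicle and full inhibition = artemisinin control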
- Recorded Conditions: P. falciparum in erythrocytes, SYBR Green DNA, 72 h; at 28.7 µM (top of the series); parasite line A
Records with an inconclusive call do not appear.
Observation Type: activity, negative = inhibition (%)
Return type: number; implicit unit %.

Please give the measured activity, negative = inhibition for this molecule: "CCn1cc(C(=O)O)c(=O)c2cc(F)c(N3CCN[C@@H](C)C3)c(F)c21" 5.09

Please give the measured activity, negative = inhibition for this molecule: "CC1(C)S[C@@H]2[C@H](NC(=O)[C@H](C(=O)O)c3ccsc3)C(=O)N2[C@H]1C(=O)O" -4.85

Please give the measured activity, negative = inhibition for this molecule: "C[C@@H]1COc2c(N3CCN(C)CC3)c(F)cc3c(=O)c(C(=O)O)cn1c23" 3.1

Please give the measured activity, negative = inhibition for this molecule: "CC(=O)OCC1=C(C(=O)O)N2C(=O)[C@@H](NC(=O)CSc3ccncc3)[C@@H]2SC1" -4.5

Please give the measured activity, negative = inhibition for this molecule: C[N+](C)(C)CC(O)CC(=O)O (stereo unspecified) 14.7

Please give the measured activity, negative = inhibition for this molecule: "CCN[C@@H]1C[C@H](C)S(=O)(=O)c2sc(S(N)(=O)=O)cc21" 7.35
